Tested on: SW-620 colon
Test Name: NCI-60 one-dose screen, 48 h (100 = growth as untreated, 0 = no growth, -100 = all killed)
Test Context: 10 µM unless noted
This is part of a sample that, as a whole, favours compounds with a hit. Of some 83,000 tested, about 20% had one in any assay.
Recorded Endpoint: growth (%)

INSERT INTO results (molecule, units_label, recorded_result) VALUES
  ('C=C(C)[C@@H]1CC[C@]2(CO)CC[C@]3(C)[C@H](CC[C@@H]4[C@@]5(C)C=C(C#N)C(=O)C(C)(C)[C@@H]5CC[C@]43C)[C@@H]12', '%', 5.54),
  ('COc1cc2c(cc1OC)-c1ccc3cc4c(cc3c1N(CCCN1CCCCC1)C2)OCO4', '%', 38),
  ('Cc1ccc(S(=O)(=O)N(CC[C@@H]2C[C@H]2c2cc3ccccc3o2)C(=O)NC2CCCCC2)cc1', '%', 92.1),
  ('CCc1cc(Cc2cc(CC)cc(C(C)(C)C)c2O)c(O)c(C(C)(C)C)c1', '%', 23.3),
  ('CS(=O)(=O)c1ccc(-c2nc3cc(Cl)ccc3n2CC(=O)N/N=C/c2ccc(Cl)cc2)cc1', '%', 75),
  ('CCOC(=O)N1CCc2c(sc3c2C(=O)N[C@H](c2ccc(OC)cc2)N3)C1', '%', 99.6),
  ('CC(=O)Nc1ccc(-c2cc3c(NCc4ccc(F)cc4)ncnc3s2)cc1', '%', 97.7),
  ('CC(=O)Nc1nccs1', '%', 92.5),
  ('Cc1c2c(cn1Cc1ccccc1)CCc1cn[nH]c1-2', '%', 95.8),
  ('NC(N)=N/N=C(/c1ccccc1)c1ccc(N)cc1', '%', 111),
  ('CC(C)n1nc(C#Cc2cccc(NC(=O)c3cccc(C(F)(F)F)c3)c2)c2c(N)ncnc21', '%', 1.28),
  ('CN(C)c1ccc(C#Cc2c(F)cccc2Cl)cc1', '%', 96),
  ('C=C1c2c(C)nn(-c3ccc(S(N)(=O)=O)cc3)c2N(C)C23CC1C1(C)c4c(C)nn(-c5ccc(S(N)(=O)=O)cc5)c4N(C)C(C)(CC12)C3 (stereo not given)', '%', 39.2),
  ('O=c1ccn(C2OC(F)(CO)C(O)C2F)c(=O)[nH]1 (stereo not given)', '%', 104),
  ('N=C(N)c1ccc(-c2ccc(/C=C/c3ccccc3)s2)cc1', '%', -67.1),
  ('CCCCC1COc2cccc3c(SCC(=O)N(C)c4cccc(Cl)c4)cc[n+]1c23 (stereo not given)', '%', 110),
  ('C[N+](C)(C)CCOC(OCC[N+](C)(C)C)(c1ccccc1)c1ccccc1', '%', 103),
  ('C[C@]12CCC(=O)C[C@H]1CC[C@@H]1[C@@H]2CC[C@@]2(C)[C@H]1CC[C@]2(O)C(=O)CO', '%', 108),
  ('Cc1nc(Nc2ccccn2)sc1C(=O)/C=C/c1ccc(Br)cc1', '%', 45.7),
  ('COc1ccc(CN2C(=O)/C(=C\c3cc(OC)c(OC)c(OC)c3)c3ccccc32)cc1', '%', -40.3);
